Recorded values, source patent US20030068675.

# EXPERIMENTAL SYSTEM: T1, ZFP SBS#567 (synthetic)
# T1 chain: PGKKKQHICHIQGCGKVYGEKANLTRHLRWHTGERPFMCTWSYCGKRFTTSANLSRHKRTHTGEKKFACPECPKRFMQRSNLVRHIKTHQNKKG
# PROCEDURE TEXT: EMSA
# MEASUREMENT CONDITIONS: tags: MBP fusion
OBSERVABLE: Kd (nM)
State the answer as a number, implicitly in nM.

Exercise: Sample GAAGATGAC (dsDNA) DNA 1: GAAGATGAC DNA 2: GTCATCTTC — what was its Kd?
Solution: 47.5
